All values here come from patent US20110230493A1.

# Target: human FAAH (Homo sapiens, UniProt O00519)
# Construct: made in house; host or cells: E. coli
# Sequence (O00519 1-579): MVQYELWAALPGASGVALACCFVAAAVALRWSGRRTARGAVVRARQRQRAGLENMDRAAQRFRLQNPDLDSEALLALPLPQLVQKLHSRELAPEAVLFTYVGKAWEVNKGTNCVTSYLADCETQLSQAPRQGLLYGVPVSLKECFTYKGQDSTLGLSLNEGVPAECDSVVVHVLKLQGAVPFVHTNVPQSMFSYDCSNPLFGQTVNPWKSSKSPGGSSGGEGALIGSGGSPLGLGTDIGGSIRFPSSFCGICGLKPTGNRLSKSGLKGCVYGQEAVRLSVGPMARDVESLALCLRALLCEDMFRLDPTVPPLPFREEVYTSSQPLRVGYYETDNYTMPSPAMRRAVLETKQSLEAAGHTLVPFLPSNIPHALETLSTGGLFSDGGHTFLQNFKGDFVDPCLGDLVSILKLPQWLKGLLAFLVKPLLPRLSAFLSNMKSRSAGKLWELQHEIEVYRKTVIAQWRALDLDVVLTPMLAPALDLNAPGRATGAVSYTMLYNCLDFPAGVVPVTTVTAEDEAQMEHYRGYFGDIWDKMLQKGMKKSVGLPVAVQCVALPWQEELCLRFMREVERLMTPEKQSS
# Procedure Summary: FAAH assay, human FAAH enzyme inactivation (kinact/Ki)
# Assay type: biochemical
# Particulars: pH 7.4, in vitro, oleamide 50 μM, 30° C., read-out: hFAAH kinact/Ki
Class yes (1): kinact/KI at least 9000 M⁻¹ s⁻¹. Class no (0): kinact/KI below 9000 M⁻¹ s⁻¹.

Is it the case that `Cc1noc(NC(=O)N2CCC3(CC2)C[C@H](c2ccc(OCc4ccc(Cl)cc4)cc2)CO3)c1C` has kinact/KI reaching or exceeding 9000 M⁻¹ s⁻¹?
yes (1)

Decide: is the reported value of kinact/KI for Cc1noc(NC(=O)N2CCC3(CC2)CC(c2ccc(OCc4ccc(F)c(F)c4)cc2)CO3)c1C (racemic) equal to or greater than 9000 M⁻¹ s⁻¹?
no (0)

# bool: kinact/KI of O=C(Nc1cccnc1)N1CCC2(CC1)CC(c1cccc(Oc3ccc(Br)cn3)c1)CO2 (racemic) >= 9000 M⁻¹ s⁻¹
no (0)

Would you say Cc1noc(NC(=O)N2CCC3(CC2)CC(c2noc(-c4ccc(C(F)(F)F)cc4)n2)CO3)c1C (single isomer, unassigned) [Example 75] shows kinact/KI at minimum 9000 M⁻¹ s⁻¹?
no (0)

Confirm if kinact/KI reported for the molecule `Cc1noc(NC(=O)N2CCC3(CC2)C[C@H](c2ccc(OCc4cccc(F)c4)cc2)CO3)c1C` is 9000 M⁻¹ s⁻¹ or above.
yes (1)

Hello, I need to know if Cc1noc(NC(=O)N2CCC3(CC2)CC(c2noc(-c4ccc(OC(F)(F)F)cc4)n2)CO3)c1C (single isomer, unassigned) [Example 72] has measured kinact/KI not below 9000 M⁻¹ s⁻¹. Thanks!
no (0)

Quick check, kinact/KI >= 9000 M⁻¹ s⁻¹? `Cn1nnnc1NC(=O)N1CCC2(CC1)C[C@H](c1cccc(-c3ccc(F)cc3)c1)CO2`
yes (1)

====

# Target: human FAAH (Homo sapiens)
# Construct: made in house; host or cells: E. coli
# Procedure Summary: FAAH assay, human FAAH enzyme inactivation (kinact/Ki)
# Type: biochemical
# Particulars: in vitro, oleamide 50 μM, 30° C., pH 7.4
Could you please report measured hFAAH kinact/Ki for the items listed next?
Please respond with the number in M⁻¹ s⁻¹ and leave the unit unwritten.

Supply reported hFAAH kinact/Ki belonging to this compound: Cc1noc(NC(=O)N2CCC3(CC2)CC(c2noc(-c4ccc(C(F)(F)F)cc4)n2)CO3)c1C (single isomer, unassigned)
3120

Write down hFAAH kinact/Ki measured for item Cc1noc(NC(=O)N2CCC3(CC2)CC(c2ccc(Cl)c(Cl)c2)CO3)c1C (single isomer, unassigned) [Example 37]
4130

For Cn1nnnc1NC(=O)N1CCC2(CC1)CC(c1cccc(Cl)c1)CO2 (single isomer, unassigned) [Example 79] , write its hFAAH kinact/Ki.
5600

Give the value of hFAAH kinact/Ki reported for the following: Cc1noc(NC(=O)N2CCC3(CC2)CC(c2noc(-c4ccc(OC(F)(F)F)cc4)n2)CO3)c1C (single isomer, unassigned)
2150

Find the measured hFAAH kinact/Ki of Cc1noc(NC(=O)N2CCC3(CC2)CC(c2ccc(OCc4ccccc4Cl)c(Cl)c2)CO3)c1C (single isomer, unassigned) [Example 43] and report it.
3620

Name the recorded hFAAH kinact/Ki of the item Cn1nnnc1NC(=O)N1CCC2(CC1)CC(c1noc(-c3ccc(OC(F)(F)F)cc3)n1)CO2 (single isomer, unassigned) in your answer.
5980

// fetch hFAAH kinact/Ki given entry Cn1nnnc1NC(=O)N1CCC2(CC1)CC(c1cccc(Cl)c1)CO2 (single isomer, unassigned) [Example 80]
11400

====

# Target: human FAAH (Homo sapiens)
# Construct: made in house; host or cells: E. coli
# Sequence (O00519 1-579): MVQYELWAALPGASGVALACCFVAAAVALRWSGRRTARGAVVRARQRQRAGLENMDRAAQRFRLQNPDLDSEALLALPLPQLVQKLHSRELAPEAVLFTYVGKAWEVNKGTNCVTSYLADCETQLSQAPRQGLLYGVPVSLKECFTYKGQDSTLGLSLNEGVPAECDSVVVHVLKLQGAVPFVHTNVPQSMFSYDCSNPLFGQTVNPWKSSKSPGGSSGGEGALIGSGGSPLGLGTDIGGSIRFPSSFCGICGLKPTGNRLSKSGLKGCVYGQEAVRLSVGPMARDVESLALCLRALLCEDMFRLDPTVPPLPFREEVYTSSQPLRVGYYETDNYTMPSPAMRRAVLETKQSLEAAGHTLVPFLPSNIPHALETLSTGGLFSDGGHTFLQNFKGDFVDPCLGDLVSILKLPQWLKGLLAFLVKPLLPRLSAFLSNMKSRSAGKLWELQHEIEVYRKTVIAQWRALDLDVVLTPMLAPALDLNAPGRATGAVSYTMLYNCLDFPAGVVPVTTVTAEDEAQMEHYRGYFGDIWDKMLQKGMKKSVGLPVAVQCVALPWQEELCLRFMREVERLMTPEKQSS
# Procedure Summary: FAAH assay, human FAAH enzyme inactivation (kinact/Ki)
# Type: biochemical
# Particulars: pH 7.4, in vitro, oleamide 50 μM, 30° C., read-out: hFAAH kinact/Ki
Quantity Kind: log10(kinact/KI) (log10 of the value in M⁻¹ s⁻¹)
Plainly stated, the numbers are log10 of kinact/KI given in M⁻¹ s⁻¹.

Quote log10(kinact/KI) with test system human FAAH (Homo sapiens) for Cc1noc(NC(=O)N2CCC3(CC2)CC(c2ccc(Cl)cc2F)CO3)c1C (racemic)
3.32

Enter log10(kinact/KI) (test system human FAAH (Homo sapiens)) for Cc1noc(NC(=O)N2CCC3(CC2)CC(c2ccc(Cl)c(Cl)c2)CO3)c1C (racemic)
3.39

Specify the recorded log10(kinact/KI) for Cc1noc(NC(=O)N2CCC3(CC2)CC(c2cccc(-c4ccc(OC(F)(F)F)cc4)c2)CO3)c1C (racemic) , system: human FAAH (Homo sapiens).
3.27

Print human FAAH (Homo sapiens) log10(kinact/KI) for O=C(Nc1cccnn1)N1CCC2(CC1)CC(c1cccc(Oc3ccc(Cl)cn3)c1)CO2 (racemic) .
3.46

Name the recorded log10(kinact/KI) of Cc1noc(NC(=O)N2CCC3(CC2)CC(c2cccc(-c4ccc(F)c(F)c4)c2)CO3)c1C (racemic) , assay system human FAAH (Homo sapiens).
3.31

Please indicate recorded log10(kinact/KI) of `Cn1nnnc1NC(=O)N1CCC2(CC1)C[C@H](c1ccc(OCc3ccc(F)cc3)cc1)CO2` measured with human FAAH (Homo sapiens).
4.49

Give log10(kinact/KI) only, for Cn1nnnc1NC(=O)N1CCC2(CC1)CC(c1cccc(OC(F)(F)F)c1)CO2 (single isomer, unassigned) , using human FAAH (Homo sapiens) data.
3.85

Provide log10(kinact/KI), recorded with human FAAH (Homo sapiens), of `Cn1nnnc1NC(=O)N1CCC2(CC1)C[C@H](c1ccc(OCc3ccc(C(F)(F)F)cn3)cc1)CO2`
4.33

Jot down log10(kinact/KI) (human FAAH (Homo sapiens)) of `Cc1noc(NC(=O)N2CCC3(CC2)C[C@H](c2cccc(-c4ccc(F)c(F)c4)c2)CO3)c1C` .
3.44

GET log10(kinact/KI) | system: human FAAH (Homo sapiens) | item: `Cn1nnnc1NC(=O)N1CCC2(CC1)C[C@@H](c1ccc(OCc3cccc(F)c3)cc1)CO2`
4.20

Given O=C(Nc1cccnn1)N1CCC2(CC1)CC(c1cccc(Oc3ccc(Br)cn3)c1)CO2 (racemic) , report its log10(kinact/KI) on human FAAH (Homo sapiens).
3.42

Name the value of log10(kinact/KI) reported for Cn1nnnc1NC(=O)N1CCC2(CC1)CC(c1noc(-c3ccc(C(F)(F)F)cc3)n1)CO2 (single isomer, unassigned) when tested on human FAAH (Homo sapiens).
3.71

Retrieve log10(kinact/KI) on human FAAH (Homo sapiens); query Cc1noc(NC(=O)N2CCC3(CC2)CC(c2cccc(Cl)c2)CO3)c1C (racemic) [Example 14]
3.31

Identify measured log10(kinact/KI) obtained with human FAAH (Homo sapiens) for Cc1noc(NC(=O)N2CCC3(CC2)CC(c2cccc(C(F)(F)F)c2)CO3)c1C (single isomer, unassigned) [Example 66] .
3.33

With human FAAH (Homo sapiens) as the test system, provide measured log10(kinact/KI) for this compound: Cc1noc(NC(=O)N2CCC3(CC2)CC(c2cccc(OC(F)(F)F)c2)CO3)c1C (racemic) [Example 13]
3.26

Provide log10(kinact/KI), system human FAAH (Homo sapiens), entry `O=C(Nc1cccnn1)N1CCC2(CC1)C[C@@H](c1cccc(Oc3ccc(C(F)(F)F)cn3)c1)CO2`
3.13

Report log10(kinact/KI) from human FAAH (Homo sapiens) testing of `Cc1noc(NC(=O)N2CCC3(CC2)C[C@@H](c2cccc(-c4ccc(F)cc4)c2)CO3)c1C`
3.32

Write down measured log10(kinact/KI) (human FAAH (Homo sapiens)) for this compound. Cn1nnnc1NC(=O)N1CCC2(CC1)CC(c1cccc(C(F)(F)F)c1)CO2 (single isomer, unassigned) [Example 93]
3.66

State measured log10(kinact/KI) of the compound `Cc1noc(NC(=O)N2CCC3(CC2)C[C@@H](c2ccc(OCc4cccc(F)c4)cc2)CO3)c1C` with human FAAH (Homo sapiens).
3.65

Provide human FAAH (Homo sapiens) log10(kinact/KI) reading for Cc1noc(NC(=O)N2CCC3(CC2)CC(c2cccc(-c4ccc(F)cc4)c2)CO3)c1C (racemic) .
3.31

Write down measured log10(kinact/KI) (human FAAH (Homo sapiens)) for this compound. Cc1noc(NC(=O)N2CCC3(CC2)CC(c2noc(-c4ccc(C(F)(F)F)cc4)n2)CO3)c1C (racemic) [Example 74]
3.38

Give log10(kinact/KI) for Cc1noc(NC(=O)N2CCC3(CC2)CC(c2cccc(OC(F)(F)F)c2)CO3)c1C (single isomer, unassigned) [Example 33] tested on human FAAH (Homo sapiens).
3.53

Under human FAAH (Homo sapiens): report log10(kinact/KI) of Cc1noc(NC(=O)N2CCC3(CC2)CC(c2ccc(OCc4ccc(Cl)cc4)cc2)CO3)c1C (racemic) .
3.84

Enter measured log10(kinact/KI), system human FAAH (Homo sapiens), for the compound shown: `Cc1noc(NC(=O)N2CCC3(CC2)C[C@@H](c2cccc(-c4ccc(OC(F)(F)F)cc4)c2)CO3)c1C`
3.37

Recall the reported log10(kinact/KI) of Cc1noc(NC(=O)N2CCC3(CC2)CC(c2ccc(OCc4cccc(C(F)(F)F)n4)cc2)CO3)c1C (racemic) on human FAAH (Homo sapiens) and write it down.
3.32

System human FAAH (Homo sapiens). Read-out log10(kinact/KI). Item `O=C(Nc1cccnn1)N1CCC2(CC1)C[C@H](c1cccc(Oc3ccc(C(F)(F)F)cn3)c1)CO2` . Report value.
3.48

Would you please give the reported log10(kinact/KI) of `Cc1noc(NC(=O)N2CCC3(CC2)C[C@@H](c2ccc(OCc4ccc(F)c(F)c4)cc2)CO3)c1C` with human FAAH (Homo sapiens)?
4.00

Given CCc1noc(NC(=O)N2CCC3(CC2)CC(c2ccc(Cl)c(Cl)c2)CO3)c1C (single isomer, unassigned) , report its log10(kinact/KI) on human FAAH (Homo sapiens).
3.28

Print human FAAH (Homo sapiens) log10(kinact/KI) for O=C(Nc1noc2ccccc12)N1CCC2(CC1)CC(c1cccc(Oc3ccc(Cl)cn3)c1)CO2 (racemic) .
3.25
